Biological target: HCV genotype 1a NS3-NS4A protease (Hepatitis C virus genotype 1a, UniProt P27958)
Construct: Co-purification of mature NS3 and NS4A protein complex was verified by Western blot analysis
Sequence (P27958 1027-1657): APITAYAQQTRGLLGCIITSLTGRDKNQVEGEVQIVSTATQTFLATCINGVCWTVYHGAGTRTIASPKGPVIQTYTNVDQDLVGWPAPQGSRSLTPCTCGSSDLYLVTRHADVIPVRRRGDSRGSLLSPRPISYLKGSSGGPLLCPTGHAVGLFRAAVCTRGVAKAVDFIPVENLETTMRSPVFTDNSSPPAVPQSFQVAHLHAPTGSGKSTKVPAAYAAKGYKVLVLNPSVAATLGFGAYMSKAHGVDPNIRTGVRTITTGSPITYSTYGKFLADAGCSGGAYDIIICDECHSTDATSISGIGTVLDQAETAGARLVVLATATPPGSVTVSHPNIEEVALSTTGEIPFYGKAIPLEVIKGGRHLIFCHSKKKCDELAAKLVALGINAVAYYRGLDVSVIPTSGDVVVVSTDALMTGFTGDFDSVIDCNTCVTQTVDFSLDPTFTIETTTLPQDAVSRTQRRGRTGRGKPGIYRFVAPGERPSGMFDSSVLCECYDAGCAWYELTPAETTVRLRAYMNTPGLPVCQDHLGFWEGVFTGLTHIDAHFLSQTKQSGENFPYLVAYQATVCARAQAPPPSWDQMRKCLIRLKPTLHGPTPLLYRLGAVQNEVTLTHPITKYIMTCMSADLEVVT
Sequence (P27958 1658-1711): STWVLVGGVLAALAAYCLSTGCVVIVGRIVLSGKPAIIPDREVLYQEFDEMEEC
Experiment: Inhibition constant (Ki) determination and mode of inhibition, steady-state velocity, genotype 1a
Experimental: The fluorogenic depsipeptide substrate anthranilyl-D(d)EIVP-Nva[C(O)—O] AMY(3-N2)TW—OH (SEQ ID No.13) was used to assess the mechanism of inhibition and the inhibition constants of the compound (IV) against HCV NS3-NS4A proteases. It was cleaved between the norvaline and the alanine residues. […] The inhibition constant (Ki) for compound (IV) was determined using a steady-state velocity method (Morrisson et al. 1985). […]
MEASURED_ATTRIBUTE: Ki (nM)
Just the number in nM, nothing appended.

Asked: Write down Ki measured for item COc1ccc2c(O[C@@H]3C[C@H]4C(=O)N[C@]5(C(=O)O)CC5/C=C\CCCCC[C@H](NC(=O)OC5CCCC5)C(=O)N4C3)cc(-c3csc(NC(C)C)n3)nc2c1 (stereo partly shown)
Given back: 0.3

====

Target: HCV genotype 2b NS3-NS4A protease (UniProt P26661)
Construct: fused on or other part: 28 extra N-terminal residues with a hexahistidine tag and an rTEV cleavage site
Assay: Inhibition constant (Ki) determination, genotype 2b
Conditions: read-out: Ki HCV genotype 2b
MEASURED_ATTRIBUTE: pKi
Give only the number. pKi is defined as minus log10 of concentration in molar units.

Asked: Provide pKi, tested on HCV genotype 2b NS3-NS4A protease (UniProt P26661), for COc1ccc2c(O[C@@H]3C[C@H]4C(=O)N[C@]5(C(=O)O)CC5/C=C\CCCCC[C@H](NC(=O)OC5CCCC5)C(=O)N4C3)cc(-c3csc(NC(C)C)n3)nc2c1 (stereo partly shown) .
Given back: 7.08

====

Molecular target: HCV genotype 1b NS3-NS4A protease (UniProt P26662)
Construct: fused on or other part: 28 extra N-terminal residues with a hexahistidine tag and an rTEV cleavage site
Assay: Inhibition constant (Ki) determination and mode of inhibition, steady-state velocity, genotype 1b
Conditions: read-out: Ki HCV genotype 1b NS3-NS4A protease; steady-state velocity analysis
MEASURED_ATTRIBUTE: Ki
Quick note: unit goes after the number.

Asked: Provide Ki, tested on HCV genotype 1b NS3-NS4A protease (UniProt P26662), for COc1ccc2c(O[C@@H]3C[C@H]4C(=O)N[C@]5(C(=O)O)CC5/C=C\CCCCC[C@H](NC(=O)OC5CCCC5)C(=O)N4C3)cc(-c3csc(NC(C)C)n3)nc2c1 (stereo partly shown) .
Given back: 0.66 nM

====

Molecular target: HCV genotype 2a-c NS3-NS4A protease (UniProt P26660)
Sequence (P26660 1031-1661): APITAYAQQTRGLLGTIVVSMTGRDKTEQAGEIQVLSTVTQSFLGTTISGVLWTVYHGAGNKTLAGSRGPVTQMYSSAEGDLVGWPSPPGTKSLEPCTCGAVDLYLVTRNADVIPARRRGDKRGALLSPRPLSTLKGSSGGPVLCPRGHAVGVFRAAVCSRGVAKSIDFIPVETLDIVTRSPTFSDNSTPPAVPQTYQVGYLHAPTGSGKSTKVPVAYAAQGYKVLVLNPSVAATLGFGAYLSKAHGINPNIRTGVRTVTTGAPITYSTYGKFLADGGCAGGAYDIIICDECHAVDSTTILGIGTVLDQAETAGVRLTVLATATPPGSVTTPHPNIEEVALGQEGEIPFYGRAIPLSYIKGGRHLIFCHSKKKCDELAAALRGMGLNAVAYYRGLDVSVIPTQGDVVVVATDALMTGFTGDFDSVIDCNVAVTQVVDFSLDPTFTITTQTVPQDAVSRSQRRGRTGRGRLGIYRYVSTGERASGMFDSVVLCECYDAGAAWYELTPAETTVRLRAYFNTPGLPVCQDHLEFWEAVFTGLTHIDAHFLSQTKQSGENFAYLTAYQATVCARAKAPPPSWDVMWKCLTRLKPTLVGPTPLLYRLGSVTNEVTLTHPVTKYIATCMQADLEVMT
MEASURED_ATTRIBUTE: Ki (nM)
Just the number in nM, nothing appended.

Asked: Write down Ki measured for item COc1ccc2c(O[C@@H]3C[C@H]4C(=O)N[C@]5(C(=O)O)CC5/C=C\CCCCC[C@H](NC(=O)OC5CCCC5)C(=O)N4C3)cc(-c3csc(NC(C)C)n3)nc2c1 (stereo partly shown) [IV]
Given back: 86

====

Biological target: GBV-B NS3-NS4A heterodimer protein (Hepatitis GB virus B, UniProt Q69422)
Construct: The full length GBV-B NS3/NS4A protease gene was isolated from infected tamarin serum
Sequence (Q69422 1565-1615): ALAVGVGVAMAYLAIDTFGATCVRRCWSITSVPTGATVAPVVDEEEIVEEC
Sequence (Q69422 941-1564): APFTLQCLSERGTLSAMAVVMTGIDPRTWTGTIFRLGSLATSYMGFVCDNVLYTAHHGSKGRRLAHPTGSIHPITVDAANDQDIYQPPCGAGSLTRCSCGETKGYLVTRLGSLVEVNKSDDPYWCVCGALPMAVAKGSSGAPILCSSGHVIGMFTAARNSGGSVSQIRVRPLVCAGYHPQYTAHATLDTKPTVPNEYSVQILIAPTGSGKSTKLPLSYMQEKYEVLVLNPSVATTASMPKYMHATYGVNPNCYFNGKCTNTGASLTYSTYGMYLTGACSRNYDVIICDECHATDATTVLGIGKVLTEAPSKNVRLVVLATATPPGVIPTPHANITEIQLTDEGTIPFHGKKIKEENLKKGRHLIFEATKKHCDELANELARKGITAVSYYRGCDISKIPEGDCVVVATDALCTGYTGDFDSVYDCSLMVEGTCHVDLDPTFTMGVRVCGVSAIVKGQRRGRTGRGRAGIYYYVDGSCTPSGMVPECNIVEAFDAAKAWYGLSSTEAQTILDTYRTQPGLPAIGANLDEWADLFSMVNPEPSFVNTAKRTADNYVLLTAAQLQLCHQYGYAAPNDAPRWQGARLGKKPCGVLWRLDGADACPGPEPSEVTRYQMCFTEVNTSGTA
Assay: In vitro GBV-B NS3 protease assay (HPLC)
MEASURED_ATTRIBUTE: IC50 (µM)
Just the number in µM, nothing appended.

Worked examples follow.
Asked: Write down IC50 measured for item COc1ccc2c(O[C@@H]3C[C@H]4C(=O)N[C@]5(C(=O)O)CC5/C=C\CCCCC[C@H](NC(=O)OC5CCCC5)C(=O)N4C3)cc(-c3csc(NC(C)C)n3)nc2c1 (stereo partly drawn) [IV]
Given back: 16

Asked: Write down IC50 measured for item COc1ccc2c(O[C@@H]3C[C@H]4C(=O)N[C@]5(C(=O)O)CC5/C=C\CCCCC[C@H](NC(=O)OC(C)(C)C)C(=O)N4C3)cc(-c3csc(NC(C)=O)n3)nc2c1 (stereo partly drawn) [III]
Given back: 31

Let's switch to this compound now.
Asked: Write down IC50 measured for item COc1ccc2c(O[C@@H]3C[C@H]4C(=O)N[C@]5(C(=O)O)CC5/C=C\CCCCC[C@H](NC(=O)OC(C)(C)C)C(=O)N4C3)cc(-c3ccccc3)nc2c1 (stereo partly drawn) [II]
Given back: 36.5

====

Target: HCV 1a NS3-NS4A heterodimer protein (Hepatitis C virus genotype 1a)
Construct: Co-purification of mature NS3 and NS4A protein complex was verified by Western blot analysis; made in house; host or cells: Sf21 insect cells, recombinant baculovirus (pFastBac HTa)
Test: In vitro HCV NS3 protease assay (fluorogenic depsipeptide), genotype 1a
Format: biochemical
Details: HCV 1a NS3-NS4A protease; read-out: IC50 HCV-1a
# pIC50 annotations
Give only the number. pIC50 is defined as minus log10 of concentration in molar units.

Asked: Write down pIC50 measured for item COc1ccc2c(O[C@@H]3C[C@H]4C(=O)N[C@]5(C(=O)O)CC5/C=C\CCCCC[C@H](NC(=O)OC(C)(C)C)C(=O)N4C3)cc(-c3ccccc3)nc2c1 (some centres unmarked)
Given back: 8.11

Let's switch to this compound now.
Asked: Write down pIC50 measured for item COc1ccc2c(O[C@@H]3C[C@H]4C(=O)N[C@]5(C(=O)O)CC5/C=C\CCCCC[C@H](NC(=O)OC(C)(C)C)C(=O)N4C3)cc(-c3csc(NC(C)=O)n3)nc2c1 (some centres unmarked)
Given back: 8.39

====

# IC50 annotations
Molecular target: HCV 3a NS3-NS4A heterodimer protein (UniProt Q81258)
Construct: fused on or other part: 28 extra N-terminal residues with a hexahistidine tag and an rTEV cleavage site
Experiment: In vitro HCV NS3 protease assay (fluorogenic depsipeptide), genotype 3a
Conditions: read-out: IC50 HCV-3a; HCV 3a NS3-NS4A protease
Just the number in nM, nothing appended.

Asked: Provide IC50, tested on HCV 3a NS3-NS4A heterodimer protein (UniProt Q81258), for COc1ccc2c(O[C@@H]3C[C@H]4C(=O)N[C@]5(C(=O)O)CC5/C=C\CCCCC[C@H](NC(=O)OC(C)(C)C)C(=O)N4C3)cc(-c3ccccc3)nc2c1 (stereo partly drawn) [II] .
Given back: 360

Asked: Provide IC50, tested on HCV 3a NS3-NS4A heterodimer protein (UniProt Q81258), for COc1ccc2c(O[C@@H]3C[C@H]4C(=O)N[C@]5(C(=O)O)CC5/C=C\CCCCC[C@H](NC(=O)OC5CCCC5)C(=O)N4C3)cc(-c3csc(NC(C)C)n3)nc2c1 (stereo partly drawn) [IV] .
Given back: 280

More entries:
Asked: Provide IC50, tested on HCV 3a NS3-NS4A heterodimer protein (UniProt Q81258), for COc1ccc2c(O[C@@H]3C[C@H]4C(=O)N[C@]5(C(=O)O)CC5/C=C\CCCCC[C@H](NC(=O)OC(C)(C)C)C(=O)N4C3)cc(-c3csc(NC(C)=O)n3)nc2c1 (stereo partly drawn) [III] .
Given back: 190

====

Target: HCV 1b NS3-NS4A heterodimer protein (UniProt P26662)
Construct: fused on or other part: 28 extra N-terminal residues with a hexahistidine tag and an rTEV cleavage site
Sequence (P26662 1027-1657, one chain of several): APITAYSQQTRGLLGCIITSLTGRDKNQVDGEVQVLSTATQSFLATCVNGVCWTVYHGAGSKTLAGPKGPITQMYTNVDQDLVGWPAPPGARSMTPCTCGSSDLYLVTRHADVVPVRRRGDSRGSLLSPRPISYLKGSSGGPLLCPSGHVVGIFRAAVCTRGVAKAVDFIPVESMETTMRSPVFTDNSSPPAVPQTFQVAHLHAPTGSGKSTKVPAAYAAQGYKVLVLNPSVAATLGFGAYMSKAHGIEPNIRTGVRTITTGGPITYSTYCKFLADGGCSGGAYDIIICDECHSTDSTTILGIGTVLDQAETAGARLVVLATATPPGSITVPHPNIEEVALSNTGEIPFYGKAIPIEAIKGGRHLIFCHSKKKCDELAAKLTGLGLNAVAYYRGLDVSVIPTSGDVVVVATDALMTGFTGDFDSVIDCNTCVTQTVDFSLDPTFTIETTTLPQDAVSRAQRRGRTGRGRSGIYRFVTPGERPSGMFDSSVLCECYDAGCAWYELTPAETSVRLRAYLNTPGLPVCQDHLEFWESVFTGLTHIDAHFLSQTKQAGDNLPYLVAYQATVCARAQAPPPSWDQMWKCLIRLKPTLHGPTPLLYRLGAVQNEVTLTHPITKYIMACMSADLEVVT
Experiment: In vitro HCV NS3 protease assay (fluorogenic depsipeptide), genotype 1b
Conditions: read-out: IC50 HCV-1b; HCV 1b NS3-NS4A protease
# IC50 annotations
Just the number in nM, nothing appended.

Worked examples follow.
Asked: Write down IC50 measured for item COc1ccc2c(O[C@@H]3C[C@H]4C(=O)N[C@]5(C(=O)O)CC5/C=C\CCCCC[C@H](NC(=O)OC(C)(C)C)C(=O)N4C3)cc(-c3ccccc3)nc2c1 (stereo partly drawn)
Given back: 8.9

Asked: Write down IC50 measured for item COc1ccc2c(O[C@@H]3C[C@H]4C(=O)N[C@]5(C(=O)O)CC5/C=C\CCCCC[C@H](NC(=O)OC5CCCC5)C(=O)N4C3)cc(-c3csc(NC(C)C)n3)nc2c1 (stereo partly drawn)
Given back: 3.4

More entries:
Asked: Write down IC50 measured for item COc1ccc2c(O[C@@H]3C[C@H]4C(=O)N[C@]5(C(=O)O)CC5/C=C\CCCCC[C@H](NC(=O)OC(C)(C)C)C(=O)N4C3)cc(-c3csc(NC(C)=O)n3)nc2c1 (stereo partly drawn)
Given back: 4.2
